Source of measurements: ChEMBL document CHEMBL3507680

Each entry below carries its recorded cytotoxicity at 70.5 h.
Assay: Human HepG2 cell viability assay in 384 well format
Format: toxicity, cell-based
Parameters: dose 125 nL, time 70.5 hour; concentration not given beside the values
Conditions: HepG2 cells, read-out: Inhibition
// note: answer is a bare numeric in %

As a guide, the following entries are already answered.
Cc1cc(N2Cc3cnc(CC(C)C)nc3C2)nc(N)n1 : 0.669
Cn1ccnc1NC[C@@H]1CCC[C@@H]2CN(Cc3cccnc3)C[C@@H]21 : 14.5
CCn1cnnc1CNC(=O)c1ccc(Br)cc1F : 22.3
CSCC(=O)N1CCCC1c1noc(C2CC2)n1 (centres undefined) : -4.73
Cc1csc(CNC(=O)CCCc2cccs2)n1 : -1.29

Name the recorded cytotoxicity at 70.5 h for `COc1cccc(CNC(C)C)c1OCc1ccc(C)cc1` .
-3.04

What do you have for Cc1nc2ccccc2nc1CN1CCOC(Cn2cccn2)C1 (centres undefined) ?
-9.86

Then this compound: CC(c1nc(C(C)(C)C)no1)N1CCN(C(=O)CN2CCOCC2)CC1 (centres undefined)
-6.71

Please do the same for `O=C(c1ccccc1)N1C[C@@H]2CC[C@H](C1)N(C(=O)CN1CCOCC1)C2` as well.
3.79

====

Assay: Human HepG2 cell viability assay in 384 well format
Type: toxicity, cell-based
Set-up: dose 125 nL, time 70.5 hour; concentration not given beside the values
Details: HepG2 cells, read-out: Inhibition
readout label: cytotoxicity at 70.5 h (%)
Respond numerically; units are % and should not be typed.

Cc1nc(CN2CCCC(CCc3c(F)cccc3F)C2)c[nH]1 (stereo unspecified) : -2.43

For the compound O=C(Nc1cccc(N2CCCC2)c1)C1CCCN1c1nccs1 (stereo unspecified) , what cytotoxicity at 70.5 h is on record?
-2.18

Can you handle `O=C([C@@H]1CCO[C@@H]2CCN(CC3CC3)C[C@H]21)N1CCCCO1` next?
42.7

And then CC(C)c1nc(C2CCCN(C(=O)CCCn3cccn3)C2)no1 (stereo unspecified) , what is it?
-4.14

Repeat with Cc1nc(C)n(C2CCCN(C(=O)COCc3ccccc3)C2)n1 (stereo unspecified)
-0.931

Now the compound CS(=O)(=O)c1ccc(C(=O)N2CCCC(n3ccnc3)C2)cc1 (stereo unspecified)
-10.2

====

The entries below come with measured cytotoxicity at 70.5 h values attached.
Assay: Human HepG2 cell viability assay in 384 well format
Type: toxicity, cell-based
Set-up: dose 125 nL, time 70.5 hour; concentration not given beside the values
Details: HepG2 cells, read-out: Inhibition
A number alone suffices; assume %.

Consider the following illustrative entries.
CC(C)NC(=O)C1CN(Cc2cccs2)Cc2ccnn2C1 (stereo unspecified) : 3.45
CCCn1nnnc1CN1Cc2ccccc2CC1c1nnc(C)o1 (stereo unspecified) : -8.77
CC(=O)N1CC[C@H]2CC(=O)N(C3CCCCC3)CC[C@H]2C1 : -2.68
O=C(c1csc(-c2ccco2)n1)N(CC1CCOC1)C1CC1 (stereo unspecified) : 4.66

Quick one: cytotoxicity at 70.5 h of `CCCS(=O)(=O)N1CCC(Nc2c(F)cc(C#N)cc2F)CC1` ?
-2.66

What would you report for Fc1cccc(-c2nccnc2C2CCCNC2)c1 (stereo unspecified) ?
-11.7

====

# key: entry, value: cytotoxicity at 70.5 h
Assay: Human HepG2 cell viability assay in 384 well format
Format: toxicity, cell-based
Parameters: dose 125 nL, time 70.5 hour; concentration not given beside the values
Conditions: HepG2 cells, read-out: Inhibition
// note: answer is a bare numeric in %

Cc1cc(NC(=O)c2ccc(N3CCOCC3)c(C)c2)[nH]n1 : 8.26
CC(C)NC(=O)c1nc2c(s1)CCCN2c1ccccc1 : 5.99
CSc1ccsc1C(=O)NC(Cc1ccccc1)C(N)=O (centres undefined) : -1.87

Given `O=C(CCC1CCCCC1)NCc1nnc2ccccn12` , state its recorded cytotoxicity at 70.5 h.
-1.08

Ok, now `COC(=O)[C@H]1CN(C(=O)NC(C)C)CCN1C(=O)C1CCCCC1`
10.7

COc1c(C2CCCN2Cc2nnc(C3CC3)o2)c(C)nn1C (centres undefined) ?
-4.73

Another compound to check: `O=C(CCn1c(C(F)F)cc2cccnc21)NC1CCCCC1`
-5.83

Next: NC(=O)C(NC(=O)COC1CCCCC1)c1ccccc1 (centres undefined)
-4.15

====

Experiment: Human HepG2 cell viability assay in 384 well format
Format: toxicity, cell-based
Set-up: dose 125 nL, time 70.5 hour; concentration not given beside the values
Conditions: HepG2 cells, read-out: Inhibition
The entries below come with measured cytotoxicity at 70.5 h values attached.
Answer with a number only, understood to be in %.

I would be grateful if you could share the reported cytotoxicity at 70.5 h for `COCC(=O)N1CCc2ncc(Cn3cncn3)n2CC1` .
-16.6

Next up: CC(C)Cc1cc(C(=O)NCC2CCN(c3ccccc3F)C2)on1 (stereo not drawn)
-13.6

One more compound: O=C(C(NCc1cccc(F)c1F)c1ccccc1)N1CCOCC1 (stereo not drawn)
-1.89

====

Experiment: Human HepG2 cell viability assay in 384 well format
Format: toxicity, cell-based
Set-up: dose 125 nL, time 70.5 hour; concentration not given beside the values
Settings: HepG2 cells, read-out: Inhibition
Some molecules, each annotated with its measured cytotoxicity at 70.5 h.
API: value field is a number in %; no unit string.

COc1ccc(C2CCCN2C(=O)Nc2ccc(OC)nc2)cc1 (centres undefined) : -7.84
CC(C)Oc1ncc(C(=O)N2CCc3ccc(O)cc3C2)cc1Cl : 15.8
Cc1ccc(C(=O)N2CCCC(Nc3ccc(F)cc3)C2)cc1 (centres undefined) : -1.63
COc1ccc(S(=O)(=O)NCCC(O)c2cccs2)c(C)c1 (centres undefined) : -8.98
CC1CN(C)CCN1C(=O)NCCCn1ccnc1 (centres undefined) : -1.11
COc1cc(NC2CCS(=O)(=O)C2)ncn1 (centres undefined) : -17.8
CCc1nnc(NC(=O)c2c3c(nn2C2CCS(=O)(=O)C2)CCC3)s1 (centres undefined) : -6.09
c1cnc(NCc2nnn3c2CN(Cc2ccco2)CCC3)nc1 : -109

Fill in the blank: the reported cytotoxicity at 70.5 h of COc1ccc(CNC(=O)NC(C)Cn2cccn2)cc1O (centres undefined) is ____.
-16.1

What do you have for `CS(=O)(=O)c1nccn1Cc1ccncc1` ?
-4.41

Try this molecule too: CCc1cnc(C)nc1NC1CC(=O)N(CC2CCCCC2)C1 (centres undefined)
-8.14

Same for `O=C(c1cnccn1)N1C[C@@H]2CC[C@H](C1)N(S(=O)(=O)c1cccnc1)C2`
7.54

Try this molecule too: `CN(C)c1cc(CNC(=O)CC2CCCCC2)ccn1`
-5.82

Note, next up: CN1CC(=O)N(c2cnn(C)c2)CC12CCN(C(=O)c1ccsc1)C2 (centres undefined)
-7.55

====

Listed next: entries and their corresponding cytotoxicity at 70.5 h.
Test: Human HepG2 cell viability assay in 384 well format
Assay type: toxicity, cell-based
Parameters: dose 125 nL, time 70.5 hour; concentration not given beside the values
Settings: HepG2 cells, read-out: Inhibition
Write it as a number; the unit % goes unstated.

Answered examples (4):
CN(C)S(=O)(=O)NCc1cccnc1Oc1ccccc1 : -6.53
CS(=O)(=O)Cc1ccc(Cl)cc1NCc1ccccc1F : 27.6
CCN1C(=O)CCC12CCN(S(=O)(=O)c1ccc(C#N)cc1)CC2 : 15.5
COCCCn1cnnc1CNc1cc(C)nc2ccnn12 : -4.02

Would you kindly share the measured cytotoxicity at 70.5 h for `COCCC(=O)NCc1ccc(-c2ccccc2C(=O)O)nc1` ?
-3.04

// same read-out, input: `O=C(NS(=O)(=O)Cc1ccon1)c1ccsc1`
-3.39

Now this one: `Cc1cccc(-c2ccc(C(=O)N3CCN(C4CC4)CC3)c(=O)[nH]2)c1`
22.8

Also `O=C(CN1CCCc2cc(F)cc(F)c21)Nc1ccc(Br)cn1` ?
-3.51

Then this compound: COCC(c1cccc(C(F)(F)F)c1)N(C)C(=O)c1cccnc1 (configuration not stated)
-1.51

Now try `CCOC(=O)NCCC(=O)NCc1ccc(Oc2cccc(F)c2)nc1` .
-3.11

Here is the next compound: C1CC(NCc2nnc(C3CC3)o2)CN(Cc2noc(C3CC3)n2)C1 (configuration not stated)
-7.51

Input `CN(Cc1cnn(C)c1)C(=O)NCCc1ccc2c(c1)OCCO2`
-2.65

====

Each entry below carries its reported cytotoxicity at 70.5 h.
Test: Human HepG2 cell viability assay in 384 well format
Assay type: toxicity, cell-based
Design: dose 125 nL, time 70.5 hour; concentration not given beside the values
Settings: HepG2 cells, read-out: Inhibition
The answer is to be given in %; state only the numeric part.

CSCC(C)(O)CNC(=O)c1ccc(F)cc1Br (stereo not given) : -4.95
CNC(=O)Cc1ccccc1NC(=O)C1CCN(C2CCCCC2)C1 (stereo not given) : -7.23
CC1CCCCN1CCN(C)C(=O)c1cc(CN2CCC(O)CC2)on1 (stereo not given) : -0.898
O=C(NCc1ccc(Cl)s1)c1ccc(N2CCOC2=O)cc1 : -7.09
CCOC(=O)c1coc(N2CCN(C(=O)c3cccc(OC)c3)CC2)n1 : -8.88
Cn1cccc1C(=O)N1CCC2(CC1)CN(c1cncnc1)C(=O)CO2 : 8.12
Cc1ccc(CNC(C)c2cc(F)ccc2N2CCN(C)CC2)o1 (stereo not given) : 0.758
CN(C)C(=O)c1cccc(NC(=O)c2cnn(C)c2)c1 : -4.77

So what does the record say about cytotoxicity at 70.5 h for `COCCNC(=O)[C@@H]1CN(c2cc(OC)ncn2)C[C@H]2OCC[C@H]21` ?
-7.76

Query Cc1cnn(CC2CCCN2Cc2noc(C)n2)c1 (stereo not given) next
-9.78

Field entry: O=C1CC[C@H](C(=O)N(CCc2ccccc2)C2CCOC2)N1 (stereo not given in full)
24.8

Try the molecule `Cc1oc(CNC(=O)Cc2cccc(OC(F)F)c2)cc1C(=O)O`
-7.31
